Catalogue of kon readings, one per entry.
# SYSTEM: T1, human C5 R885C-mmh (human, UniProt P01031 19-1676)
# T1 construct: also called human C5 variant R885C
# ASSAY REMARKS: SPR, mAb captured via anti-hFc, 25C
PARAMETER: kon (M⁻¹ s⁻¹)

1) H4H11683N (antibody, V domains shown, also called H2M11683N) VH: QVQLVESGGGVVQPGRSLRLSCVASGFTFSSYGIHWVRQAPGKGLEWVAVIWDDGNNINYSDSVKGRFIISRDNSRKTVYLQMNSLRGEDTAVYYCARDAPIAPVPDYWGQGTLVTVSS VL: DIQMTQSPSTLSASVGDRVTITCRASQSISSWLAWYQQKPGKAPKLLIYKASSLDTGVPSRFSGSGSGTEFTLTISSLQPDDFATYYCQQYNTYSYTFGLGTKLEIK ... 499000
2) H4H11686N (antibody, V domains shown, also called H2M11686N) VH: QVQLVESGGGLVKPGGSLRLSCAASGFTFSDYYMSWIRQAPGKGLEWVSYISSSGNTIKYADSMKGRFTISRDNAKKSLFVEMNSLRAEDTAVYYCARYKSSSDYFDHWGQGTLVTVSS VL: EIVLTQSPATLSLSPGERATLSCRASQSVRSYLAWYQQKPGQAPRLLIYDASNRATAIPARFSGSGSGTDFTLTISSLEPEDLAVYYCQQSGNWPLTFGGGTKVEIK ... 178000
